Origin of measurements: PubChem BioAssay

Tested on: Human papillomavirus type 1a E7 protein (residues 1-88)
Assay Info: HPV1a E7 small-molecule binders, primary screen, biochemical, small-molecule microarray, residues 1-88, 635 nm (AID 1129)
Test Parameters: small-molecule microarray binding, fluorescence 635 nm; higher = more signal
Classification field: yes = composite z-score at or over 0.9; no = composite z-score under 0.9.

Examples from the recorded data:
Compound	Classification
CCOC(=O)c1ccc(NC(=O)O[C@H]2[C@H](OC(=O)Nc3ccc4c(c3)OCO4)[C@H](OC(=O)Nc3ccc4c(c3)OCO4)[C@@H](OC)O[C@@H]2CO)cc1	yes
O=C1O[C@H](c2ccccc2)[C@H](c2ccccc2)N2[C@H]1[C@@H](C(=O)NC[C@H](O)c1ccccc1)[C@]1(C(=O)Nc3ccc(C#CCCO)cc31)[C@H]2c1ccc(OCCO)cc1	yes
O=C(N1CCCCC1)[C@@]1(CCS(=O)(=O)c2ccccc2)COC(c2ccc(OCCCO)cc2)=N1	yes

Task: Record "CC1=C[C@@]2(CO)C(=O)[C@]3(CO3)[C@@H]1[C@H]1[C@]2(C)C=C(CO)C(=O)[C@]12CO2" ; criterion: composite z-score no lower than 0.9. Met?
Result: no

Task: Record "CCOC(=O)C[C@H]1[C@H](OC(=O)c2ccc(C(=O)c3ccccc3)cc2)[C@@H](NC(=O)Cc2ccc(OC)cc2)c2cc(OCCCO)ccc2N1C(=O)c1ccccc1" ; criterion: composite z-score no lower than 0.9. Met?
Result: no

Task: Record "CC(C)N1C(=O)C[C@@](C(=O)NCCCN(C)C)(c2ccc([N+](=O)[O-])cc2)[C@H]1c1ccc(CO)cc1" ; criterion: composite z-score no lower than 0.9. Met?
Result: no

Task: Record "C#CCN([C@@H](Cc1ccc(O)cc1)C(=O)OC)[C@@H](/C=C/C1CC1)[C@H](O)Cc1ccccc1" ; criterion: composite z-score no lower than 0.9. Met?
Result: no

Task: Record "CC(C)(C)OC(=O)CC[C@]1(C(=O)NCc2ccccc2)N=C(c2ccc(OCCCO)cc2)O[C@H]1c1ccccc1CN=[N+]=[N-]" ; criterion: composite z-score no lower than 0.9. Met?
Result: yes

Task: Record "CC(C)[Si](C#C[Si](C(C)C)(C(C)C)C(C)C)(O[C@H](C)c1cn([C@H](CO)Cc2ccccc2)nn1)C(C)C" ; criterion: composite z-score no lower than 0.9. Met?
Result: no

Task: Record "O=C1O[C@H](c2ccccc2)[C@H](c2ccccc2)N2[C@H]1[C@@H](C(=O)Nc1nc3ccccc3s1)[C@]1(C(=O)Nc3ccc(C#CC4(O)CCCCCC4)cc31)[C@H]2c1ccccc1OCCO" ; criterion: composite z-score no lower than 0.9. Met?
Result: yes

Task: Record "[N-]=[N+]=Nc1ccccc1[C@H]1OC(c2ccc(OCCCO)cc2)=N[C@@]1(Cc1ccccc1)C(=O)N1CCCCC1" ; criterion: composite z-score no lower than 0.9. Met?
Result: yes

Task: Record "CC(C)C[C@@H]1NC(=O)[C@@H]2C[C@H](C(=O)NCCCCCN)[C@H](c3ccc(O)cc3)N2C1=O" ; criterion: composite z-score no lower than 0.9. Met?
Result: yes

Task: Record COc1cc(OC)c(C(O)C2C=CC3C(=O)N(C)C(=O)C3N2NC(=O)OC(C)(C)C)cc1Br (centres undefined) ; criterion: composite z-score no lower than 0.9. Met?
Result: yes

###

System: wheat germ agglutinin (Triticum aestivum), Alexa647-labelled
Assay Info: wheat germ agglutinin binders on compound microarrays, profiling panel, artefact control for SMM control-protein annotation, biochemical, small-molecule microarray, 635/667 nm fluorescence (AID 1140);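 also: score merges 667 nm feature emission with signal to noise over triplicate slides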
Test Parameters: WGA-A647 binding, 635 nm fluorescence, higher = more signal
Measured Metric: composite z-score
One number for each entry.

# example entries with known answers
Molecule	Target Of Assay	Measured Metric	Measured Result
Cc1ccc(S[C@]2(C(=O)O)CC(=O)N(Cc3ccccc3Cl)[C@@H]2c2ccc(CO)cc2I)cc1	wheat germ agglutinin (Triticum aestivum), Alexa647-labelled	composite z-score	0.435
Cc1ccc(S[C@]2(C(=O)O)CC(=O)N(C3Cc4ccccc4C3)[C@@H]2c2ccc(CO)cc2)cc1	wheat germ agglutinin (Triticum aestivum), Alexa647-labelled	composite z-score	-0.339
CC=CC(O)C1C=CC2C(=O)N(c3ccccc3)C(=O)C2N1Nc1ccccc1F (configuration not stated)	wheat germ agglutinin (Triticum aestivum), Alexa647-labelled	composite z-score	0.0224

For every item below, please supply its composite z-score.
1. COC(=O)[C@@]1(Cc2ccc(OC)cc2)[C@@H]2C(=CC(=O)[C@H]2CC(=O)C(=O)N(C)C)CN1C(=O)c1ccccc1
2. NC(=O)NCC#Cc1ccc2c(c1)[C@]1(C(=O)N2)[C@H](C(=O)O)[C@H]2C(=O)O[C@H](c3ccccc3)[C@H](c3ccccc3)N2[C@@H]1c1ccc(OCCO)cc1
3. CN(C)CCCCNC(=O)[C@@H]1C[C@@H]2C(=O)N[C@@H](Cc3ccccc3)C(=O)N2[C@@H]1c1cccc(OCCO)c1
4. COC(=O)c1c(CC[C@@H](CO)NC(=O)N[C@H](Cn2cc(C3(O)CCCCC3)nn2)C(C)C)oc(C(C)=O)c1C(=O)OC

Result:
1: 0.521; 2: 0.553; 3: 0.645; 4: 0.947

###

Target Of Assay: Calmodulin-1 (Homo sapiens) (UniProt P0DP23)
Assay Info: calcium-bound CALM1 binders on microarrays, profiling panel, artefact control for SMM control-protein annotation, biochemical, small-molecule microarray, Cy5-labelled CALM1, plus calcium (AID 1112);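 also: score merges spot fluorescence with signal to noise from triplicate slides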
Test Parameters: Cy5-CALM1 binding fluorescence, higher = more signal
Classification field: t = composite z-score at or over -0.5; f = composite z-score under -0.5.

Examples from the recorded data:
Compound	Target Of Assay	Classification
C=CCC(OC(C)=O)[C@@H]1[C@@H](N(Cc2ccc(-c3cccc(C(F)(F)F)c3)o2)C(=O)c2ccc(-c3ccccc3)cc2)c2cc(OCCCO)ccc2N1C(=O)c1ccc2ccccc2n1 (some centres not stated)	Calmodulin-1 (Homo sapiens) (UniProt P0DP23)	t
CC(CO)N1C(=O)[C@@H]2[C@H]3C(=O)OCC=C[C@H]3OC23C=CCN(CCN2CCOCC2)C(=O)[C@@H]13 (some centres not stated)	Calmodulin-1 (Homo sapiens) (UniProt P0DP23)	f
CCCC[C@@H]1C[C@H]1[C@@H](NC(=O)c1ccccc1)c1ccc(C(F)(F)F)cc1	Calmodulin-1 (Homo sapiens) (UniProt P0DP23)	t
C=C[C@@H](OC)[C@H](OC(=O)Nc1ccc(SC)cc1)c1ccc(O)c(F)c1	Calmodulin-1 (Homo sapiens) (UniProt P0DP23)	t
COC(=O)[C@@]1(Cc2ccccc2)[C@@H]2C(=CC(=O)[C@H]2CC(=O)C(=O)N(C)C)CN1C(=O)c1ccccc1	Calmodulin-1 (Homo sapiens) (UniProt P0DP23)	t

Task: Record "[N-]=[N+]=NCc1ccccc1C[C@@]1(C(=O)N2CCCCC2)N=C(c2ccc(OCCCO)cc2)O[C@@H]1c1ccccc1" ; criterion: composite z-score no lower than -0.5. Met?
Result: t

Task: Record "C[N+](C)(C)CCCCCCNC(=O)[C@H]1C[C@H]2C(=O)NCC(=O)N2[C@H]1c1ccc(O)cc1" ; criterion: composite z-score no lower than -0.5. Met?
Result: f

###

Assay Info: basal RPMI8226 mitochondrial membrane potential changes, profiling panel, cell-based, JC-1 fluorescence, 24 h, 100 nL compound (AID 1169); also: test concentration not given here
Test Parameters: RPMI8226 myeloma, JC-1 mitochondrial potential fluorescence, higher = more signal
Measured Metric: z-score
Give bare numbers.

# example entries with known answers
Molecule	z-score
NC(=O)NCC#Cc1ccc2c(c1)[C@]1(C(=O)N2)[C@H](C(=O)NC[C@H](O)c2ccccc2)[C@H]2C(=O)O[C@H](c3ccccc3)[C@H](c3ccccc3)N2[C@@H]1c1ccc(OCCO)cc1	-1.1
CN(C)CCCNC(=O)[C@@]1(c2ccc([N+](=O)[O-])cc2)CC(=O)N(CC23CC4CC(CC(C4)C2)C3)[C@@H]1c1ccc(CO)cc1I	-0.913

For every item below, please supply its z-score.
1. COc1ccc(NC(=O)O[C@H]2[C@H](OC(=O)Nc3ccccc3)[C@@H](OC(=O)Nc3ccccc3)[C@@H](OC)O[C@@H]2CO)cc1
2. C=C(C)C1CCC(C(O)C2C=CC3C(=O)N(C)C(=O)C3N2N2CCCCC2)CC1 (stereo not given)
3. CC(C)OC(=O)C=C1C[C@@H](c2ccc(C(F)(F)F)cc2)O[C@@H](c2ccc(C(F)(F)F)cc2)O1
4. CN1C(=O)C2C=CC(C(O)c3cccc(O)c3)N(Nc3ccccc3)C2C1=O (stereo not given)
5. COc1ccc([Si](C)(C)[C@H]2[C@H](CCO)O[C@@]3(C(=O)N(Cc4cccc(N5C(=O)COc6ccccc65)c4)c4ccccc43)[C@@H]2C)cc1
6. CCCCCCCCCCC(O)C1C=CC2C(=O)N(C)C(=O)C2N1NC(=O)OC(C)(C)C (stereo not given)
7. C[C@]1(C(=O)NC2CC2)c2ccccc2C(=O)N(Cc2ccccc2)[C@H]1c1ccc(CO)cc1
8. CC(C)N1CC=CC23O[C@@H]4C=CCOC(=O)[C@@H]4[C@H]2C(=O)N(CCCO)[C@@H]3C1=O (stereo not given in full)

Result:
1. -0.765
2. 0.887
3. -0.478
4. -0.419
5. -1.05
6. -0.946
7. -0.0462
8. 0.354

For every item below, please supply its z-score.
1. COC(=O)[C@@]1(Cc2ccccc2)[C@H]2c3cc(C(=O)N(C)C)n(CCN4CNCC4=O)c3C[C@H]2CN1C(=O)c1ccccc1
2. C=C(/C(=C/C[C@@H](OC(C)=O)c1cccc(OCCO)c1)c1cc(C(=O)OC)ccc1OC)C(C)C
3. CCC[C@@H]1C[C@@]1(CCC)[C@@H](NC(=O)OCc1ccccc1)c1ccc(-c2ccccc2)cc1
4. C[N+](C)(C)CCCC[C@@H]1NC(=O)[C@H]2C[C@@H](C(=O)NCCCCCCN)[C@@H](c3ccc(O)cc3)N2C1=O
5. C=C(C)[C@@H]1CC=C(C(O)C2C=CC3C(=O)N(c4ccccc4)C(=O)C3N2Nc2ccccc2F)CC1 (stereo not given in full)

Result:
1: -0.874; 2: 0.373; 3: -0.325; 4: -0.0466; 5: -0.872
